- procedure.text: p53 small molecule agonists, cell-based qHTS assay (AID 1963582)
- test.parameters: HCT-116 p53RE-bla reporter, beta-lactamase FRET ratio, 16 h; series mostly up to 66 µM
Records with an inconclusive call do not appear. The source made the active and inactive calls. Calls follow the shape of the dose curve; as a rule, active = well fitted activation curve with a large enough effect in the signal ratio in the repeat runs (not every such curve was filed as active); inconclusive = weak or mixed curves; inactive = flat fitted curve, though single readings scatter; the % refers to the signal ratio.

- compound: "CC(C)(C)C(O)(CCc1ccc(Cl)cc1)Cn1cncn1 (configuration not stated)"
  outcome: "inactive"
- compound: "BrCCBr"
  outcome: "inactive"
- compound: "O=S(=O)(O)C(F)(F)C(F)(F)C(F)(F)C(F)(F)C(F)(F)C(F)(F)C(F)(F)C(F)(F)F"
  outcome: "inactive"
- compound: "CCCCCCCCn1cc[n+](C)c1"
  outcome: "inactive"
- compound: "ClCc1ccccn1"
  outcome: "inactive"
- compound: "O=C(Cl)C(Cl)Cl"
  outcome: "inactive"
- compound: "O=C/C=C/c1ccccc1"
  outcome: "inactive"
- compound: "C#CC(C)(C)NC(=O)c1cc(Cl)cc(Cl)c1"
  outcome: "inactive"
- compound: "Cc1ccc(N=C=O)cc1N=C=O"
  outcome: "inactive"
- compound: "CN(C)C(=O)C(c1ccccc1)c1ccccc1"
  outcome: "inactive"
- compound: "CCOC(=O)CC(SP(=O)(OC)OC)C(=O)OCC (configuration not stated)"
  outcome: "inactive"
- compound: "CCOP(=O)(OCC)Oc1ccc([N+](=O)[O-])cc1"
  outcome: "inactive"
- compound: "CCCCCCI"
  outcome: "inactive"
- compound: "OCC(Cl)CCl (configuration not stated)"
  outcome: "inactive"
- compound: "c1ccc(-c2cccc(-c3ccccc3)c2)cc1"
  outcome: "inactive"
- compound: "CC(C)C1(C)N=C(c2ncccc2C(=O)O)NC1=O (configuration not stated)"
  outcome: "inactive"
- compound: "Nc1cc(Cl)cc(Cl)c1"
  outcome: "inactive"
- compound: "COP(=S)(OC)Oc1ccc(Sc2ccc(OP(=S)(OC)OC)cc2)cc1"
  outcome: "inactive"
- compound: "NC(=O)CF"
  outcome: "inactive"
- compound: "COC(=O)C(Br)CBr (configuration not stated)"
  outcome: "inactive"
- compound: "O=C1CCCO1"
  outcome: "inactive"
- compound: "O=[N+]([O-])c1c(Cl)c(Cl)c(Cl)c(Cl)c1Cl"
  outcome: "inactive"
- compound: "Cc1cccc(N)c1"
  outcome: "inactive"
- compound: "CC(Oc1ccc(Cl)cc1Cl)C(=O)O (configuration not stated)"
  outcome: "inactive"
- compound: "C=CC(=O)OCCO"
  outcome: "inactive"
- compound: "CCOC(=O)C1OC1(C)c1ccccc1 (configuration not stated)"
  outcome: "inactive"
- compound: "CCN"
  outcome: "inactive"
- compound: "O=C=NC1CCCCC1"
  outcome: "inactive"
- compound: "CN(CCCC(=O)c1cccnc1)N=O"
  outcome: "inactive"
- compound: "O=C1CC(=O)NC(=O)N1"
  outcome: "inactive"
- compound: "COP(=S)(OC)Oc1ccc([N+](=O)[O-])cc1"
  outcome: "inactive"
- compound: "c1cc2c(c(N3CCNCC3)c1)OCCO2"
  outcome: "inactive"
- compound: "CCCC(C)(COC(N)=O)COC(N)=O"
  outcome: "inactive"
- compound: "CCCCCCCCCCCC[N+](C)(C)CCOc1ccccc1"
  outcome: "inactive"
- compound: "ClCc1ccccc1"
  outcome: "inactive"
- compound: "Nc1cccnc1"
  outcome: "inactive"
- compound: "COc1ccc(C(CN(C)C)C2(O)CCCCC2)cc1 (configuration not stated)"
  outcome: "inactive"
- compound: "Nc1cccc(Cl)c1"
  outcome: "inactive"
- compound: "C[C@]12CCC(=O)C=C1CC[C@@H]1[C@@H]2CC[C@@]2(C)[C@H]1CC[C@]2(C)O"
  outcome: "inactive"
- compound: "CC(C)Nc1nc(Cl)nc(NC(C)C)n1"
  outcome: "inactive"
- compound: "OCCOc1ccccc1"
  outcome: "inactive"
- compound: "BrCC(Br)c1ccccc1 (configuration not stated)"
  outcome: "inactive"
- compound: "CC(C)CCCCCOC(=O)c1ccccc1C(=O)OCCCCCC(C)C"
  outcome: "inactive"
- compound: "CCCCON=O"
  outcome: "inactive"
- compound: "Oc1cc(Cl)ccc1Oc1ccc(Cl)cc1Cl"
  outcome: "inactive"
- compound: "NCCOS(=O)(=O)O"
  outcome: "inactive"
- compound: "Nc1ncc([N+](=O)[O-])s1"
  outcome: "inactive"
- compound: "NC(=O)O"
  outcome: "inactive"
- compound: "O=C1C=CC(=O)C=C1"
  outcome: "inactive"
- compound: "Oc1ccc(Cl)cc1Cc1ccccc1"
  outcome: "inactive"
- compound: "CCOP(=S)(OCC)O/N=C(\\C#N)c1ccccc1"
  outcome: "inactive"
- compound: "O=C(Cl)c1ccccc1"
  outcome: "inactive"
- compound: "CCN(CC)C1CCCCC1"
  outcome: "inactive"
- compound: "Clc1ccc(C(c2ccc(Cl)cc2)C(Cl)Cl)cc1"
  outcome: "inactive"
- compound: "O=C(Cl)OCc1ccccc1"
  outcome: "inactive"
- compound: "CN1CCC(N(Cc2ccccc2)c2ccccc2)CC1"
  outcome: "inactive"
- compound: "CON(C)C(=O)Nc1ccc(Cl)cc1"
  outcome: "inactive"
- compound: "C=CCN1C[C@H](C)N([C@H](c2ccc(C(=O)N(CC)CC)cc2)c2cccc(OC)c2)C[C@H]1C"
  outcome: "inactive"
- compound: "N#CCC#N"
  outcome: "inactive"
- compound: "Nc1nc(=S)[nH][nH]1"
  outcome: "inactive"
- compound: "COP(=S)(OC)Oc1ccc(SC)c(C)c1"
  outcome: "inactive"
- compound: "CCOC(=O)c1ccccc1S(=O)(=O)NC(=O)Nc1nc(Cl)cc(OC)n1"
  outcome: "inactive"
